Please respond with reported tissue uptake at 3 h for every item in the list.
- Procedure details: in vivo
- Particulars: swiss nude, mouse, blood pool surrogate (BPS), iv
Numbered stars: 1 amine (or outer) side, 2 acyl side, 3 side chain; on linkers, the order of the positions; unused ones are H or OH. Bridge positions count the residues as written; N and C are the ends. Square brackets hold non-standard residues; d marks the D form. Peptide text beside a SMILES is read from it. * marks the point of attachment. ξ: configuration not given here. Pyridine(3,5-bisCH2) = c1ncc(C[*:2])cc1C[*:1]; PEG6 = NCCOCCOCCOCCOCCOCCOCCC(=O)O; Nle = CCCC[C@H](N)C(=O)O; X2 = NCCNCC(CNCCN)C(=O)*; ξC = NC(CS)C(=O)O

As a guide, the following entries are already answered.
Compound: CCCC[C@H](NC(=O)CCOCCOCCOCCOCCOCCOCCNC(=O)C(CNCCN)CNCCN)C(=O)N[C@H]1CSCc2cncc(c2)CSCC(C(=O)O)NC(=O)[C@H](Cc2ccccc2)NC(=O)[C@H](CCC(=O)O)NC(=O)[C@H]([C@@H](C)O)NC(=O)[C@@H]2CCCN2C(=O)[C@@H]2CCCN2C1=O (stereo partly drawn) [3BP-4773] ({X2-PEG6}-[Nle]CPPTEF[ξC]-OH; linker 2-8 via Pyridine(3,5-bisCH2))
Experimental readout: tissue uptake at 3 h
Result: 0.09 %ID/g
--
Compound: CCCC[C@H](NC(=O)CCC(=O)NCCCOCCOCCOCCCNC(=O)C(CNCCN)CNCCN)C(=O)N[C@H]1CSCc2cncc(c2)CSCC(C(=O)O)NC(=O)[C@H](Cc2ccccc2)NC(=O)[C@H](CCC(N)=O)NC(=O)[C@H]([C@@H](C)O)NC(=O)[C@@H]2CCCN2C(=O)[C@@H]2CCCN2C1=O (stereo partly drawn)
Experimental readout: tissue uptake at 3 h
Result: 0.03 %ID/g

Let us move to another entry and its tissue uptake at 3 h.
Asked: Look at this compound and give its reported tissue uptake at 3 h. CCCC[C@H](NC(=O)CCC(=O)NCCCOCCOCCOCCCNC(=O)CN1CCN(C(=O)C(CNCCN)CNCCN)CC1)C(=O)N[C@H]1CSCc2cccc(c2)CSC[C@@H](C(=O)NCCC(=O)O)NC(=O)[C@H](Cc2ccccc2)NC(=O)[C@H](CCC(N)=O)NC(=O)[C@H]([C@@H](C)O)NC(=O)[C@@H]2CCCN2C(=O)[C@@H]2CCCN2C1=O
Given back: 0.47 %ID/g
